Target: T1, Human OSM (human, UniProt P13725 26-221)
T1 construct: Recombinant human OSM; also called hOSM; human Oncostatin M
T1 sequence: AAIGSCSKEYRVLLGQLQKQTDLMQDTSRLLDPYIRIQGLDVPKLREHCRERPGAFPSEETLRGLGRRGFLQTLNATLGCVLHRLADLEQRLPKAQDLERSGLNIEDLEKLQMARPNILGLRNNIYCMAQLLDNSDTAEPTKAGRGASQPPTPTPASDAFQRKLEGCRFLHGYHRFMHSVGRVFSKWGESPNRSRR
Experiment: BIAcore kinetics, transfection supernatant
REPORTED_METRIC: kon
A bare number is not enough; add the unit after it.

Task: What value of kon has been reported for the following binder? Humanised 10G8 H0(IGHV3-23)L1(IGK4-1) (antibody, V domains shown, built from the stated exchange of CDRL2; residue limits derived by me; also called H0 IGHV3_23 + L1 IGKV4_1; H0(huCDRH1)L1(huCDRL2)) VH: EVQLVESGGGLVQPGGSLRLSCAASGFTFSSYAMSWVRQAPGKGLEWVATISDGGSFTYYLDNVRGRFTISRDNAKNSLYLQMNSLRAEDTAVYYCARDVGHTTFWYFDVWGRGTLVTVSS VL: DIVMTQSPDSLAVSLGERATINCRASKSVSAAGYNFMHWYQQKPGQPPKVLIYWASTRESGVPDRFSGSGSGTDFTLTISSLQAEDVAVYYCLHSREFPFTFGGGTKVEIK
Result: 159000 M⁻¹ s⁻¹
